The reported measurements were obtained from patent US7244741B2.

This listing pairs compounds with measured Efficacy (IC70), averaged over all cell lines.
System: 12 cancer cell lines: LCL (H460/lung), MACL (MCF7, breast), LXFL (529L, lung), LXFA (629L, lung), MEXF (462NL, melanoma), MEXF (514L, melanoma), MAXF (401NL …)
Test: Biological activity against 12 cancer cell lines (IC70 averaged over all cell lines)
Assay type: cell-based
Conditions: mean over 12 cancer cell lines; 5 test concentrations
Answer format: numeric, µg/mL implied, no suffix.

[
  {
    "COMPOUND": "N.N.[Cl][Pt][Cl] [Cisplatin]",
    "QUANTITY_UNIT": "µg/mL",
    "QUANTITATIVE_RESULT": 37.1020
  },
  {
    "COMPOUND": "C/C=C/C=C/c1cc2cc3c(c(O)c2c(=O)[nH]1)C1(CC3)C(=O)c2c(O)c3c(c(O)c2C1=O)C(=O)C(OC)=CC3=O (stereo not shown)",
    "QUANTITY_UNIT": "µg/mL",
    "QUANTITATIVE_RESULT": 0.2790
  },
  {
    "COMPOUND": "C/C=C/C=C/c1cc2cc3c(c(O)c2c(=O)[nH]1)[C@@]1(C(=O)c2c(O)c4c(c(O)c2C1=O)C(=O)C(OC)=CC4=O)C(SCCO)C3 (stereo partly shown)",
    "QUANTITY_UNIT": "µg/mL",
    "QUANTITATIVE_RESULT": 0.1340
  }
]

Moving on to another compound below.
Name the reported Efficacy (IC70), averaged over all cell lines value associated with the compound COc1cccc2c1C(=O)c1c(O)c3c(c(O)c1C2=O)C[C@@](O)(C(=O)CO)C[C@@H]3O[C@H]1C[C@H](N)[C@H](O)[C@H](C)O1
0.0210
